# PROCEDURE_SUMMARY: gradient 5% acetonitrile 3 min, to 50% in 2 min, to 85% in 15 min, held 3 min, 100 µL/min
# TEST_PARAMETERS: column: Zorbax Extend-C18 2.1 x 50 mm; eluents: water / acetonitrile, 0.1% formic acid
Provide the reported RP-LC retention time of each item.
The reply must contain the numeric value and, after it, the unit.

[
  {
    "COMPOUND": "COc1ccc(C(=O)Nc2cnn(C)c(=O)c2N2CCOCC2)cc1Cl",
    "VAL": "784 s"
  },
  {
    "COMPOUND": "CCOC(=O)c1c(C)[nH]c(C(=O)N2CCC(CC(=O)NCc3ccccc3)CC2)c1C",
    "VAL": "762 s"
  },
  {
    "COMPOUND": "O=C(Cc1ccccc1Cl)N1CCc2cc(-c3ccno3)ccc21",
    "VAL": "1020 s"
  }
]

Batch: RP-LC retention time for all items listed.
1. O=S(=O)(c1ccc2c(c1)CCC2)N1CCC(c2noc(-c3cccc(F)c3)n2)CC1
2. CC1CCCN(c2nc(-c3ccc(Cl)cc3)nc3ccccc23)C1 (stereo not given)

["1260 s", "941 s"]

Provenance of the data: the METLIN SMRT retention time set (Domingo-Almenara et al. 2019)
